Tested on: Plasmodium falciparum
Assay: Primary screen in NF54 nanoGlo assay, in single point, at 2uM, 72h
Type: functional, Erythrocyte
Settings: timepoint 72 hour
About 540 (0.36%) of roughly 150,000 compounds showed an effect of 50% or more. For the sample, strong results were picked, then their nearest neighbours and some compounds at random.
Note to self: use true (1) only for Z score readings below -10; a reading exactly at -10 still gets false (0).

>  <molecule>
COc1cc2nc(NCC3(N4CCN(C)CC4)CCCC3)cc(C)c2cc1OC

>  <categoryLabel>
false (0)

$$$$

Does the reported Z score of Cc1ccc2nc(-c3cccc(NC(=O)c4ccc(OC(F)(F)F)c(Cl)c4)c3)[nH]c2n1 stay below -10?
true (1)

Does this compound meet the criterion Z score < -10? Cc1n[nH]nc1C(=O)Nc1ccc2[nH]c(-c3cccc(F)c3)nc2c1
false (0)

Is Z score of CNC(=O)c1ccc(C(=O)Nc2nc(C3(C)CC3)ns2)cn1 strictly below -10?
false (0)

is_below(Z score, -10) for CCN1C[C@H](Nc2nc(C)nc3sccc23)[C@@H](OC)C1 ?
true (1)

* * *

Tested on: Plasmodium falciparum
Assay: Primary screen in NF54 nanoGlo assay, in single point, at 2uM, 72h
Type: functional, Erythrocyte
Details: timepoint 72 hour
The whole screen tested about 150,000 compounds, of which about 540 (0.36%) showed an effect of 50% or more. Many of the other results were omitted from the sample, so strong results are more common in it than they were.
Measured Z score, listed per entry for reference.

>  <compound>
CN(CCCNc1nccc2ncncc12)CC(F)(F)F

>  <recordedMetric>
Z score

>  <result>
0.32

$$$$

Indicate the recorded Z score value for this compound: COC(=O)c1cn(CCNc2ccnc3cc(Cl)ccc23)cc2c(O)nnc1-2
-19.19

Annotate the compound Cn1nnc(C(=O)N2CCCCC23CCCCCC3)n1 with its measured Z score.
-13.81

Let me know recorded Z score for O=C(c1cc(-c2ccccc2)[nH]n1)N1CCC(c2nc3cc(C(F)(F)F)ccc3s2)CC1 , thanks.
-0.4

* * *

Test system: Plasmodium falciparum
Experiment: Primary screen in NF54 nanoGlo assay, in single point, at 2uM, 72h
Assay type: functional, Erythrocyte
Conditions: timepoint 72 hour
The campaign covered roughly 150,000 compounds. About 540 (0.36%) showed an effect of 50% or more. This excerpt belongs to a sample that is enriched for strong results.
recordedMetric: Z score
Please state the value as a number alone, without comment.

Please review the following examples before continuing.
>  <compound>
Cn1nc(C(=O)Nc2cnc(CC3CC3)nc2)cc1C(F)(F)F

>  <recordedMetric>
Z score

>  <number>
-0.26

$$$$
>  <compound>
O[C@@H](CNCc1cc2cc(Cl)c(Cl)cc2[nH]1)c1ccc(F)cc1

>  <recordedMetric>
Z score

>  <number>
-13.27

$$$$

Annotate the compound CCNc1cc(C)nc(NCCNC(=O)c2cc(-n3cccn3)nc(C)n2)n1 with its measured Z score.
0.15

Answer with the recorded Z score of CCCC(=O)NC1COCC1Cc1ccncc1 (stereo not drawn) only.
-16.24

Return Z score (reported value) for this compound: CC(CNc1nc(NCC(C)N2CCOCC2)c2cc(Cl)ccc2n1)N1CCOCC1 (stereo not drawn)
-13.62

Name the recorded Z score of the compound listed here: COc1ccc2c(O)c(Br)c(C)nc2c1
-13.24

Give me measured Z score, please, for this compound: Cc1cccc(Nc2ccnc(Nc3ccc(N4CCN(C)CC4)cc3)n2)c1
-13.46

Please list Z score recorded for the compound OC[C@H](CNCc1cc2ccc(F)cc2[nH]1)c1ccccc1Cl
-6.28

// fetch Z score given entry CCCN1CCC(Nc2cc(C)nc3ccccc23)CC1
-8.81

* * *

Test system: Plasmodium falciparum
Test: Primary screen in NF54 nanoGlo assay, in single point, at 2uM, 72h
Type: functional, Erythrocyte
Details: timepoint 72 hour
Hit rate of the full screen: of about 150,000 compounds, about 540 (0.36%) showed an effect of 50% or more. The sample as a whole holds a higher share of strong results than the screen did.
// classify: if (% Inhibition < 40%) 1 else -1

See these solved cases before continuing.
>  <molecule>
Cc1cc(N2CCC(NCCCN3CCCc4ccccc43)CC2)nc(N)n1

>  <studySystem>
Plasmodium falciparum

>  <categoryLabel>
-1

$$$$
>  <molecule>
Cc1cc(O)c2cccc(-c3cccc(C(=O)NCCCN4CCCC4)c3)c2n1

>  <studySystem>
Plasmodium falciparum

>  <categoryLabel>
1

$$$$
>  <molecule>
Cc1cc(N2CCC(N(C)Cc3nc4ccc(F)cc4[nH]3)CC2)ncn1

>  <studySystem>
Plasmodium falciparum

>  <categoryLabel>
1

$$$$
>  <molecule>
CCc1cc(Nc2ccc(N3CCOCC3)nc2)nc(-c2ccncc2)n1

>  <studySystem>
Plasmodium falciparum

>  <categoryLabel>
-1

$$$$
>  <molecule>
Cc1ccc(Nc2ncc(-c3ccc(Cl)c(OC(F)(F)F)c3)cn2)cc1

>  <studySystem>
Plasmodium falciparum

>  <categoryLabel>
1

$$$$
>  <molecule>
CCc1oc2ccccc2c1CNC[C@H](O)c1ccc(Cl)cc1

>  <studySystem>
Plasmodium falciparum

>  <categoryLabel>
-1

$$$$

Kindly review the next molecule as well.
Record CN1CCC(N(C)C[C@H](Nc2ncnc3ccccc23)c2ccccc2)CC1 : is its % Inhibition strictly below 40%?
-1

* * *

System: Plasmodium falciparum
Assay: Primary screen in NF54 nanoGlo assay, in single point, at 2uM, 72h
Assay type: functional, Erythrocyte
Details: timepoint 72 hour
In all, about 150,000 compounds went through this assay and about 540 (0.36%) showed an effect of 50% or more. This excerpt belongs to a sample that is enriched for strong results.
Assign Satisfied to entries whose % Inhibition meets or exceeds 20%; assign Not satisfied to the rest.

>  <compound>
Cc1cnccc1NCCNCc1cnc(N2CCCCC2)nc1

>  <studySystem>
Plasmodium falciparum

>  <categoryLabel>
Satisfied

$$$$
>  <compound>
COc1ccc2[nH]c(CN3CCC[C@H](N4CCN(c5ccccc5)CC4)C3)c(C)c2c1

>  <studySystem>
Plasmodium falciparum

>  <categoryLabel>
Not satisfied

$$$$
>  <compound>
CN1CCC(Oc2ccc(NC(=O)c3cn4ccnc4s3)cn2)CC1

>  <studySystem>
Plasmodium falciparum

>  <categoryLabel>
Satisfied

$$$$
>  <compound>
Cc1cccc(-c2cccc(N3CCC(NC[C@H]4CCC(=O)N4)CC3)c2)c1

>  <studySystem>
Plasmodium falciparum

>  <categoryLabel>
Not satisfied

$$$$
>  <compound>
Cc1ccc2[nH]cc(-c3cc(N4CCOCC4)nc(N)n3)c2c1

>  <studySystem>
Plasmodium falciparum

>  <categoryLabel>
Satisfied

$$$$
>  <compound>
CCN(CCN1CCCCCC1)C(=O)NCCNc1ccncc1C

>  <studySystem>
Plasmodium falciparum

>  <categoryLabel>
Not satisfied

$$$$

Form field: % Inhibition at least 20%? Entry: Cc1cnccc1NCCNCc1cccc(OCCCCN2CCOCC2)c1
Satisfied

Threshold query (% Inhibition >= 20%) on CCN1CCN(CC2CN(C/C=C/c3ccc(OC)cc3)CC2CO)CC1 (stereo unspecified)
Not satisfied

Is % Inhibition for Cc1ccc2[nH]cc(-c3cc(N4CCCCC4)ncn3)c2c1 at or above 20%?
Not satisfied

I'd appreciate it if you could say whether CN1CCC(N2CCC(CN(CCCn3cccn3)Cc3ccncc3)CC2)CC1 has % Inhibition at least equal to 20%.
Not satisfied

Is it the case that Cc1cnccc1NCCNc1ncc(F)c(N2CCCC2)n1 has % Inhibition reaching or exceeding 20%?
Satisfied

* * *

Test system: Plasmodium falciparum
Assay: Primary screen in NF54 nanoGlo assay, in single point, at 2uM, 72h
Assay type: functional, Erythrocyte
Conditions: timepoint 72 hour
In all, about 150,000 compounds went through this assay and about 540 (0.36%) showed an effect of 50% or more. Many of the other results were omitted from the sample, so strong results are more common in it than they were.
recordedMetric: % Inhibition (%)
Numbers only; they are read as %.

Solved entries (count: 3):
>  <molecule>
CCN(Cc1cnc(-c2ccccc2C)nc1)CC1CCN(C2CCN(C)CC2)CC1

>  <measurementUnits>
%

>  <number>
-7

$$$$
>  <molecule>
Fc1ccc2ncnc(NC3CCN(C[C@H]4CCOC4)CC3)c2c1

>  <measurementUnits>
%

>  <number>
-10

$$$$
>  <molecule>
Cn1c(NCc2ccc(N3N=C(c4ccccc4)C[C@H]3c3ccccc3)cc2)nc2ccccc21

>  <measurementUnits>
%

>  <number>
-11

$$$$

We now examine a further compound.
Fill in reported % Inhibition for this entry: COc1ccc2cc(-c3cc(N)ccn3)[nH]c2c1
54

* * *

System: Plasmodium falciparum
Test: Primary screen in NF54 nanoGlo assay, in single point, at 2uM, 72h; a lower Z score goes with more inhibition
Type: functional, Erythrocyte
Settings: timepoint 72 hour
The whole screen tested about 150,000 compounds, of which about 540 (0.36%) showed an effect of 50% or more. The sample holds strong results, similar compounds and a random draw of the others, so the mix is not that of the screen.
Response field label: string, one of 1 (Z score strictly below -5) or -1.

>  <molecule>
Cc1cc(O)c(Cl)cc1-c1cccc2c(N)ccnc12

>  <categoryLabel>
1

$$$$
>  <molecule>
Cc1cc(O)c(Cl)cc1-c1ccc2ncnc(N)c2c1

>  <categoryLabel>
-1

$$$$
>  <molecule>
Cc1cc(O)c(Cl)cc1-c1ccc2nccc(N)c2c1

>  <categoryLabel>
1

$$$$
>  <molecule>
O=C1c2cccc3cccc(c23)C(=O)N1CCc1nc2ccccc2s1

>  <categoryLabel>
-1

$$$$
>  <molecule>
Cc1cc(O)c(Cl)cc1-c1ncnc2[nH]ccc12

>  <categoryLabel>
-1

$$$$

Now for a further compound.
Input C[C@@H](c1cccc(-c2nc3cc(C#N)ccc3[nH]2)c1)N(C)C ; condition: Z score strictly below -5. Does it hold?
-1
